Reported pIC50 for target or system HIV-1 RT wild-type enzyme (Human immunodeficiency virus type 1 group M subtype B), by entry.
Would you please state pIC50, meaning minus log10 of the concentration in mol/L, as a bare number?

Sample records with pIC50:
entry_smiles=N#Cc1cc(Cl)cc(Oc2c(C(F)(F)F)ncn(Cc3cc(-c4ccc(F)cc4)c(=O)[nH]n3)c2=O)c1 measurement_name=pIC50 result_value=8.43
entry_smiles=N#Cc1cc(Cl)cc(Oc2c(C(F)(F)F)ncn(Cc3cc(C(F)(F)F)c(=O)[nH]n3)c2=O)c1 measurement_name=pIC50 result_value=8.10

Incoming: Give the reported pIC50 for "N#Cc1cc(Cl)cc(Oc2c(C(F)F)ncn(Cc3cc(Cl)n[nH]c3=O)c2=O)c1" (system: HIV-1 RT wild-type enzyme (Human immunodeficiency virus type 1 group M subtype B)).
Outgoing: 8.48
